Quick reference: enrichment ratio of the listed items.
B1: PhoQ; a variant is named by its letters at X, in order, P23837 (parent)
chain: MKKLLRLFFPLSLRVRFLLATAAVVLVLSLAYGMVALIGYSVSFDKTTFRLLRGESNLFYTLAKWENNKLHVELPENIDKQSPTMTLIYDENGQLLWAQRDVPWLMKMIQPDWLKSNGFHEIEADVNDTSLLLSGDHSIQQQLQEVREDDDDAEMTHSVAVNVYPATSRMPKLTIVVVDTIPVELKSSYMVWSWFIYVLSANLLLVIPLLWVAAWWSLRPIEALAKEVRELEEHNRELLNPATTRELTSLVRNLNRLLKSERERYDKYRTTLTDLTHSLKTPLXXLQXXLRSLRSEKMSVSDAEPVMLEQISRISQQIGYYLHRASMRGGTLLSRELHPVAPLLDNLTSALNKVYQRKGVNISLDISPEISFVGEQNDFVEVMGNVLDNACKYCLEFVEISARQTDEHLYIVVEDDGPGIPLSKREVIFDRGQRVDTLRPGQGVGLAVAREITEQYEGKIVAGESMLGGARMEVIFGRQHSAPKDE

# Variants of: B1
# protocol: enrichment ratio after two sorts for PhoP signalling (ratio (wild type AVST 3.29)); higher = more functional
# test-conditions: with PhoP (E. coli)
Over roughly 140,000 sequences, “enrichment ratio after two sorts for PhoP signalling” has its median near 0; the highest 2% begin near 11. The entries come from a sample that favours the highest values as a whole.
Output spec: single numeric token, no unit.

Illustrative cases are given below, each with its answer.
   variant_descriptor  observed_value
0                GNIS            5.86
1                AALT            11.9
2                GEIV            8.51
3                AALA            7.36

For TSLC the variant record lists enrichment ratio as 18.4

For GEIY the variant record lists enrichment ratio as 23
